# subject.of.test: T1, recombinant human IL22R1 (human IL22R ECD) (human, UniProt Q8N6P7 16-228, biotinylated in the ELISA of Table 4)
# T1 construct: extracellular domain; also called hIL22R; human Interleukin 22 receptor
# T1 sequence (looked up): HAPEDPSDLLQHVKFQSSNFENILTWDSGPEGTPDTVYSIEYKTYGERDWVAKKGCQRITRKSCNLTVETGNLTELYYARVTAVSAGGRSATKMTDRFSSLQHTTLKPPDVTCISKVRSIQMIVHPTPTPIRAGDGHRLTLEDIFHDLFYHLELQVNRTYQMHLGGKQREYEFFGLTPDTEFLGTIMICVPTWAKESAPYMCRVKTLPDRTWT
# test.method.notes: Biacore, hIL22R
endpoint: Kd (nM)
Numbers only, in nM.

The following binders have reported results that may help.
| binder | readout.value |
| --- | --- |
| 196C2 (antibody, V domains shown, Vkappa-shuffled clone of 170B2 (keeps the 170B2 VH-CH1); also called VK_196C2) VH: EVQLVESGGGLVQPGGSLRLSCAASGFTFSSSWMYWVRQAPGKGLEFVSVINTRSGITHYVESVKGRFTISTDNAKNTLFLQMNSLKSEDTAVYYCATRIQGLIDYWGQGTQVTVSS VL: DIQMTQSPSSLSASLGDRVTITCQASQSISSLLAWYQQKPGQAPKLLIYGASRLQTGVPSRFSGSGSGTSFTLTISGVEAEDLATYYCLQDYSWPLTFGQGTKVELK | 0.08 |
| 196F8 (antibody, V domains shown, Vkappa-shuffled clone of 170B2 (keeps the 170B2 VH-CH1); also called VK_196F8) VH: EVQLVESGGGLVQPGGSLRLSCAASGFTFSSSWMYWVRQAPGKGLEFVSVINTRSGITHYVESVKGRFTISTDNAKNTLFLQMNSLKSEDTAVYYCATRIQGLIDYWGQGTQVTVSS VL: DIQMTQSPSSLSASLGDRVTITCQASQSISSMLAWYQQKPGQAPNLLIYGASRLQTGVPSRFSGSRSGTSFTLTISGVEAEDLATYYCLQDYSWPLTFGQGTKVELK | 0.01 |

-- ask For the binder shown here, 197B7 (antibody, V domains shown, Vkappa-shuffled clone of 170B2 (keeps the 170B2 VH-CH1); also called VK_197B7) VH: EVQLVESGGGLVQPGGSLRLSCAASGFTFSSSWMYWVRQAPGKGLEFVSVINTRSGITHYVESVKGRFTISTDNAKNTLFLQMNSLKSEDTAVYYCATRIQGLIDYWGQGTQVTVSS VL: DIVMTQSPSSLSASLGDRVTITCQASQSIRSFIDWYQQKPGQAPKLLIYGTSRLETGVPSRFSGTGSGTSFTLTISGVEAEDLATYYCLQDYSWPLTFGQGTKVELK , give the reported Kd.
-- reply 0.038

Source listed as patent US20150203840A1.
